Just for reference, ChEMBL document CHEMBL4387773 is where these values come from.

assayed-target: Nuclear receptor ROR-beta (Homo sapiens)
Sequence (Q92753 whole entry): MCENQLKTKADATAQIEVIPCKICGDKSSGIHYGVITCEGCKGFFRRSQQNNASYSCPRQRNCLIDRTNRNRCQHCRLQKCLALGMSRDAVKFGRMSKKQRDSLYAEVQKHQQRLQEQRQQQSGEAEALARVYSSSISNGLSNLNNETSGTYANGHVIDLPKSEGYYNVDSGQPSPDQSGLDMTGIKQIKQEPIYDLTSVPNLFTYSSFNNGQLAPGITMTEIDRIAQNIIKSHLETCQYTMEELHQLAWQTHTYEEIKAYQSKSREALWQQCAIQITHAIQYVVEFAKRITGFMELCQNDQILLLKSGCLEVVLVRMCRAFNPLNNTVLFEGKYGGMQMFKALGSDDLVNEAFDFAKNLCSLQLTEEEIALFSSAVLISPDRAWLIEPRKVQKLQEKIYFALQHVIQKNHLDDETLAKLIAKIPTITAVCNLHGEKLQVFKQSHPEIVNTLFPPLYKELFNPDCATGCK
assay-notes: Inverse agonist activity at human Gal4-fused RORbeta LBD (200 to 559 residues) expressed in human Jurkat cells measured after 18 hrs by steady-glo luciferase reporter gene assay
Assay type: cell-based
recorded-endpoint: EC50

Before answering, review these 3 worked examples.
C[C@]1(C(=O)N2CC[C@](c3ccc(C(F)(C(F)(F)F)C(F)(F)F)cc3)(S(=O)(=O)c3ccc(F)cc3)C2)CC[C@H](C(=O)O)CC1 :: > 40 µM
O=C(O)C1CCC(O)(C(=O)N2CC[C@](c3ccc(C(F)(C(F)(F)F)C(F)(F)F)cc3)(S(=O)(=O)c3ccc(F)cc3)C2)CC1 (stereo in doubt; 12) :: > 40 µM
CC[C@]1(C(=O)N2CC[C@](c3ccc(C(F)(C(F)(F)F)C(F)(F)F)cc3)(S(=O)(=O)c3ccc(F)cc3)C2)CC[C@H](C(=O)O)CC1 :: > 40 µM

Kindly review the next compound as well.
Write down EC50 measured for item "O=C(O)[C@H]1CC[C@H](C(=O)N2CC[C@](c3ccc(C(F)(C(F)(F)F)C(F)(F)F)cc3)(S(=O)(=O)c3ccc(F)cc3)C2)CC1"
> 40 µM
